pIC50: −log10 of the molar value.
Observed pIC50 values for UniProt:O00763 are listed in what follows.
Sequence (O00763 129-2458): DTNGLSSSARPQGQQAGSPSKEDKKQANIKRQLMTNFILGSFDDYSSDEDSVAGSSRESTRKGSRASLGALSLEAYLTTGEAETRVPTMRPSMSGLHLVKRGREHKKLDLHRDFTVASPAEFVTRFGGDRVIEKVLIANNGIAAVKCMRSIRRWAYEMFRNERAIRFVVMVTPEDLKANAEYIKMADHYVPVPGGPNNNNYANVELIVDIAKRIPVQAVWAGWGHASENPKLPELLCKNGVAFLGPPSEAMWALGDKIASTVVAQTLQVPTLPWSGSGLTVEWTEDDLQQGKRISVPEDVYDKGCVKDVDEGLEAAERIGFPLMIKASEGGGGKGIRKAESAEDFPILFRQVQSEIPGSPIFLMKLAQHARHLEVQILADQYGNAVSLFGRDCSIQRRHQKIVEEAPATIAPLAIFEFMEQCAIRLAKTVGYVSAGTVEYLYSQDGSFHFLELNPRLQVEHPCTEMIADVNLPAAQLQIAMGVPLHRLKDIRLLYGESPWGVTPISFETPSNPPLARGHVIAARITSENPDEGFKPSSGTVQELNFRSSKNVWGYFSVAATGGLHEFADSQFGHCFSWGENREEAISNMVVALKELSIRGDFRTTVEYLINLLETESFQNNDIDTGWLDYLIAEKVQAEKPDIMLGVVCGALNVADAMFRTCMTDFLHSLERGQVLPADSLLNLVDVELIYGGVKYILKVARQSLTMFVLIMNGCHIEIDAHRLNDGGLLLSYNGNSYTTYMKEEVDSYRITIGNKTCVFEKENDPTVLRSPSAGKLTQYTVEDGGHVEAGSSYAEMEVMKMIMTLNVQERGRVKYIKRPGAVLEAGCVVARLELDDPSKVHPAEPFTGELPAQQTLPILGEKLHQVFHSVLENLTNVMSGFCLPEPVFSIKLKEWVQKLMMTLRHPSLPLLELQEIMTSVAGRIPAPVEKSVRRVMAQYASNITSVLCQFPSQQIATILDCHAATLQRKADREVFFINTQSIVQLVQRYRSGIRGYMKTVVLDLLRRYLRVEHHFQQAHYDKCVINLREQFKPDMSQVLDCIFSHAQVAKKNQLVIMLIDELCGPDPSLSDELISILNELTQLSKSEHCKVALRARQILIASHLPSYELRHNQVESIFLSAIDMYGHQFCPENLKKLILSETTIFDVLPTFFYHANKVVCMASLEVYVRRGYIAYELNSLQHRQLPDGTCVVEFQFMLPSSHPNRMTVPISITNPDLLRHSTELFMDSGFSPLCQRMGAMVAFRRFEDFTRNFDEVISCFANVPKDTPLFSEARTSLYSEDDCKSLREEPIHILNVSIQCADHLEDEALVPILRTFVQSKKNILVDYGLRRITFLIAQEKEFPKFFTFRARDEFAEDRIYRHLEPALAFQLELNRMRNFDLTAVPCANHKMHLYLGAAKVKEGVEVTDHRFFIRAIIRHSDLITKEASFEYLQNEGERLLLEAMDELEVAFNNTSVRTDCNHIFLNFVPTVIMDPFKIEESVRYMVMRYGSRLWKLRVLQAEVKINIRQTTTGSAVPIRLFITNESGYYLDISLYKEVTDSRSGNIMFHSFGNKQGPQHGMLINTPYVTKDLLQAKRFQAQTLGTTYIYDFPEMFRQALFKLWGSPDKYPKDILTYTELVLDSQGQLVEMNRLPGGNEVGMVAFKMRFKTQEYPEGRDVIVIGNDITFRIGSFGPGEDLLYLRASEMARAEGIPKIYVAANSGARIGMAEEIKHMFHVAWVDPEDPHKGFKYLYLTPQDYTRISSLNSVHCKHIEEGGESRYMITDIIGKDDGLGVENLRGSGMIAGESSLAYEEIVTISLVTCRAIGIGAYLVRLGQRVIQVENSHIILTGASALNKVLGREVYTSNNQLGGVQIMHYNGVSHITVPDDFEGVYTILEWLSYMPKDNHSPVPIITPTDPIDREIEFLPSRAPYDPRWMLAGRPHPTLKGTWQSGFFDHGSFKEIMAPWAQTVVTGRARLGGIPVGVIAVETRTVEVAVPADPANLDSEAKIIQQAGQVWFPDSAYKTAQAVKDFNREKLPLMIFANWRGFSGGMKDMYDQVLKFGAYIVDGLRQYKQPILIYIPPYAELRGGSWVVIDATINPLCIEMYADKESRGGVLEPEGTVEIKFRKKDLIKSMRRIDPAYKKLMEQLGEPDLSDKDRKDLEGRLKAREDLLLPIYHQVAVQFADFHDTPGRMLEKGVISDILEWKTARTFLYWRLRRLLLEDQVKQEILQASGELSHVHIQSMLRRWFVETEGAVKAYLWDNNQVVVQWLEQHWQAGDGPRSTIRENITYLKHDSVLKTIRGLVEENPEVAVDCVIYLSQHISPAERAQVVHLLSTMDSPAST
assay-readout: pIC50

{"columns": ["molecule", "measured-on", "assay-readout", "observed"],
 "data": [
  ["CCC(=O)Nc1nc(C)c(C(=O)N[C@@H](C)c2ccc(O[C@@H]3CCN(c4ccc(OC[C@H]5CC5(F)F)cn4)C3)cc2)s1", "UniProt:O00763", "pIC50", 7.03],
  ["C[C@H](NC(=O)C(F)(F)C(F)(F)F)c1ccc(O[C@@H]2CCN(c3cccc(C(F)(F)F)n3)C2)cc1", "UniProt:O00763", "pIC50", 6.40],
  ["CC(=O)N[C@@H](C)c1ccc(O[C@@H]2CCN(c3ccc(OCC4CC4(F)F)cn3)C2)cc1 (stereo partly drawn)", "UniProt:O00763", "pIC50", 7.34]
]}
